Data provenance: PubChem BioAssay

# Test system: PRMT1 (protein arginine N-methyltransferase 1)
# experimentDescription: PRMT1 binders on small-molecule microarrays, primary screen, biochemical, small-molecule microarray, 635 nm fluorescence (AID 1088);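 also: binding of Prmt1 protein to compounds spotted on small-molecule microarray slides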
# assayContext: small-molecule microarray binding, higher = more signal
reportedEndpoint: composite z-score

smilesrepresentation=CC(C)NC(=O)[C@@]1(C)c2ccccc2C(=O)N(Cc2cc(C(F)(F)F)cc(C(F)(F)F)c2)[C@H]1c1ccc(CO)cc1 value=1.4
smilesrepresentation=COc1ccc(CCNC(=O)[C@@]2(C)c3ccccc3C(=O)N(C(C)C)[C@H]2c2ccc(CO)cc2)cc1 value=0.601
smilesrepresentation=COc1ccc(C#Cc2ccc3c(c2)[C@]2(C(=O)N3)[C@H](C(=O)NC[C@H](O)c3ccccc3)[C@H]3C(=O)O[C@H](c4ccccc4)[C@H](c4ccccc4)N3[C@@H]2c2ccc(O)cc2)cc1 value=1.55
